Tested on: HeLa
Test: Antiproliferative activity against human HeLa cells after 72 hrs by MTT assay
Format: functional, cell-based
OBSERVATION_TYPE: IC50 (µM)

- C=C[C@]1(C)CC[C@@H](C(=C)COC(=O)CCC(=O)OCCOc2no[n+]([O-])c2S(=O)(=O)c2ccccc2)C[C@H]1C(=C)C: 4.94
- C=C[C@]1(C)CC[C@@H](C(=C)COC(=O)[C@@H](NC(=O)CCC(=O)OCCCCOc2no[n+]([O-])c2S(=O)(=O)c2ccccc2)[C@@H](C)CC)C[C@H]1C(=C)C: 4.25
- C=C[C@]1(C)CC[C@@H](C(=C)COC(=O)c2ccccc2C(=O)OCCCCOc2no[n+]([O-])c2S(=O)(=O)c2ccccc2)C[C@H]1C(=C)C: 21.9
- C=C[C@]1(C)CC[C@@H](C(=C)C)C[C@H]1C(=C)C: 214
- C=C[C@]1(C)CC[C@@H](C(=C)COC(=O)CNC(=O)CCC(=O)OCCCCOc2no[n+]([O-])c2S(=O)(=O)c2ccccc2)C[C@H]1C(=C)C: 10.2
- C=C[C@]1(C)CC[C@@H](C(=C)COC(=O)[C@H](C)NC(=O)CCC(=O)OCCCCOc2no[n+]([O-])c2S(=O)(=O)c2ccccc2)C[C@H]1C(=C)C: 10.9
